Source of measurements: the supplement of paper PMC10126150

# switch fluorescence ratio per entry
Tested on: ATP;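 note: ATP exposure 15 min at 22 °C before imaging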
Experiment: switch fluorescence ratio, 500 uM ATP over buffer (Cy3 cluster intensity, sum of 5 cycles each) (fold (ratio)); higher = stronger signal-on switching upon ATP binding; sequences stand for … in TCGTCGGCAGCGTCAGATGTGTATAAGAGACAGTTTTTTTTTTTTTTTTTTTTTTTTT…TC
Conditions: aptamer strand: ATP DNA aptamer (quencher-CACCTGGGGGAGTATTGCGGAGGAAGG + anchor), 100 nM annealed; ATP concentration: 500 uM
Endpoint label: switch fluorescence ratio

| Primary sequence | Endpoint label | Meas value |
| --- | --- | --- |
| TTTAATTA | switch fluorescence ratio | 1.01 |
| ATATATCGGG | switch fluorescence ratio | 0.999 |
| TGGGTCGGGC | switch fluorescence ratio | 0.991 |
| GCTGCGAGGT | switch fluorescence ratio | 1.01 |
| GGTCCAAAAT | switch fluorescence ratio | 0.985 |
| AATTTTGCGG | switch fluorescence ratio | 1.01 |
| GGTTTGAGAA | switch fluorescence ratio | 1.02 |
| CAGGGGGTCA | switch fluorescence ratio | 0.982 |
| CGGGAGGTGC | switch fluorescence ratio | 1.02 |
| TGCTAGGGTT | switch fluorescence ratio | 1 |
| GGGGGATTGA | switch fluorescence ratio | 1.02 |
| TGGGTTAAGT | switch fluorescence ratio | 1 |
| GTGTTAATGG | switch fluorescence ratio | 0.998 |
| GCTGGTGCAC | switch fluorescence ratio | 1.01 |
| GTGTTCAGGG | switch fluorescence ratio | 1.02 |
| AACGGGTATG | switch fluorescence ratio | 1.01 |
| CTTTCATTTT | switch fluorescence ratio | 0.972 |
| GGTTTTGGGA | switch fluorescence ratio | 0.998 |
| GGCGCCGGAA | switch fluorescence ratio | 0.98 |
| AATGTCAATG | switch fluorescence ratio | 0.991 |
| GGGGCCTCGG | switch fluorescence ratio | 0.997 |
